Origin of the recorded values: the RNAGym collection of RNA variant scans (doi:10.7554/elife.80360)

B1: HDV Ribozyme (parent)
chain: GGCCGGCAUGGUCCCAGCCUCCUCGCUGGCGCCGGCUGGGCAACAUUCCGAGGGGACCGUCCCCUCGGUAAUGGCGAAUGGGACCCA

- Variants of: B1
- experiment_notes: self-cleavage, relative activity (ratio to wild type); higher = more cleavage; co-transcriptional
measure_name: self-cleavage

[[record]]
mutation_label = "C30U C48U"
measure_name = "self-cleavage"
observed_measurement = 0.506

[[record]]
mutation_label = "G28C U79C"
measure_name = "self-cleavage"
observed_measurement = 0.155

[[record]]
mutation_label = "C22G C48G"
measure_name = "self-cleavage"
observed_measurement = 0.0489

